Value source: ChEMBL document CHEMBL1140353

# experimentalSystem: Substance-K receptor (Oryctolagus cuniculus, UniProt P79218)
# Sequence (P79218 whole entry): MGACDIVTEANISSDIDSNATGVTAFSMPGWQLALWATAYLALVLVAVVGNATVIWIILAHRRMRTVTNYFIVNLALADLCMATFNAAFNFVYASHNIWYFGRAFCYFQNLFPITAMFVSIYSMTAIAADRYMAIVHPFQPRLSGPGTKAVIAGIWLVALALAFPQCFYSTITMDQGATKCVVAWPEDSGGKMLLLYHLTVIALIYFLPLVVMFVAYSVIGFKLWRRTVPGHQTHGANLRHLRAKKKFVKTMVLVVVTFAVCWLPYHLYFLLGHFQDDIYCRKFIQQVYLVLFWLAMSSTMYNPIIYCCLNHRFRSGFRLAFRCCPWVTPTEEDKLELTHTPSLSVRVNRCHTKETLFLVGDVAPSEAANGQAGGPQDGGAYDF
# assayName: pA2 for NK2 receptor of rabbit pulmonary artery
# Assay type: functional
# experimentalSetup: read-out: pA2 (converted)
attributeMeasured: Kb (nM)

querysmiles=CN(C)S(=O)(=O)N1CCN(C2CN(CC[C@]3(c4ccc(Cl)c(Cl)c4)CCC(=O)N(CC4CC4)C3)C2)CC1 result=10
querysmiles=CS(=O)(=O)N1CCN(C2CN(CC[C@]3(c4ccc(Cl)c(Cl)c4)CCC(=O)N(CC4CC4)C3)C2)CC1 result=3.16
querysmiles=O=C1CC[C@](CCN2CC(N3CCC(F)CC3)C2)(c2ccc(Cl)c(Cl)c2)CN1CC1CC1 result=2.51
querysmiles=NC1CCN(C2CN(CC[C@]3(c4ccc(Cl)c(Cl)c4)CCC(=O)N(CC4CCC(F)(F)CC4)C3)C2)CC1 result=0.2

[1] O=C1CC[C@](CCN2CC(N3CCOCC3)C2)(c2ccc(Cl)c(Cl)c2)CN1CC1CCC(F)(F)CC1
[2] O=C1CC[C@](CCN2CC(N3CCC(O)CC3)C2)(c2ccc(Cl)c(Cl)c2)CN1CC1CCC(F)(F)CC1
Between the entries labelled 1 and 2 , which has a larger Kb value on record? Answer by stating the label of the chosen item.
1
